mean fluorescence intensity: recorded values
# TARGET_DESC: T1, cynomolgus CD47, on CHOK1-cCD47 stable cell line (cynomolgus)
# T1 construct: whole, on cells; check before use; also called CHOK1/cynoCD47; monkey-derived CD47
# EXPERIMENT_DESCRIPTION: FACS CHOK1-cCD47; Ab 1.6 nM

These solved cases illustrate the format of a correct answer.
[[record]]
binder = "54G8G6 (antibody, V domains shown, Murine hybridoma antibody purified on protein G) VH: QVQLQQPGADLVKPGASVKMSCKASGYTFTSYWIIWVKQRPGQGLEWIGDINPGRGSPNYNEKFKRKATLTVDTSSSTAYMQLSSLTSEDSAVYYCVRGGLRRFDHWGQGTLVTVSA VL: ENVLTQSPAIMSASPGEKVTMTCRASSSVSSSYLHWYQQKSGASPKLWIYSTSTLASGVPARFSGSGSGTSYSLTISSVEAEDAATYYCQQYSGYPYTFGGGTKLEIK"
value_measured = 9570

[[record]]
binder = "132D1E5 (antibody, V domains shown, Murine hybridoma antibody purified on protein G) VH: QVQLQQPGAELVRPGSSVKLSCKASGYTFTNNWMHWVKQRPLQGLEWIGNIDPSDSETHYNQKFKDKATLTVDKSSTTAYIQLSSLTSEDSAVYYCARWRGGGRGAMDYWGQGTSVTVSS VL: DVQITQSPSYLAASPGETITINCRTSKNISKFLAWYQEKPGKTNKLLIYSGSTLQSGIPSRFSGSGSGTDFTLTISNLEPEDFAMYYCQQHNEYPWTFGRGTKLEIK"
value_measured = 6060


Let us examine a further case.
Endpoint output: mean fluorescence intensity of 95E2D10 (antibody, V domains shown, Murine hybridoma antibody purified on protein G) VH: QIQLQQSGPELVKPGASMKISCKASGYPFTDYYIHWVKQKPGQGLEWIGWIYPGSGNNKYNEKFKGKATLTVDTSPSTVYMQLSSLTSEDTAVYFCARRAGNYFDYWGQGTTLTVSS VL: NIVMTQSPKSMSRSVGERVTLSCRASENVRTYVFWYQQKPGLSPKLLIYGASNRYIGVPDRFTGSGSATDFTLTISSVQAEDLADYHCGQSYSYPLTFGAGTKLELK . Value?
7990
